The reported measurements were obtained from PubChem BioAssay (NCI).

- System: UACC-62 melanoma
- test details: NCI-60 one-dose screen, 48 h
- condition context: 10 µM unless noted
The panel holds about 83,000 compounds, 20% with a hit somewhere; the sample as a whole holds those more often. Calls of active or inactive are those of the source. How the source made its calls: active means growth percent below 10; inactive means the rest.
Please state which outcome applies, choosing from active, inactive

Take a look at these entries with their results.
compound	class assignment
Nc1ccc(N=Nc2ccccc2)c2cc(S(=O)(=O)O)ccc12	inactive
O=C1C(Br)=CC2C1C1C3CCC3C2(Br)C12OCCO2 (configuration not stated)	inactive
O=Nc1ccc(O)c2ccccc12	inactive
COc1ccc(/C=C2\SC(=O)N(Cc3cc(=O)oc4ccc(OC)cc34)C2=O)cc1	inactive
CCOC(=O)CCCCCCCCC(=O)OCC	inactive
COc1nc(OC)nc(-c2cc(C(=O)c3ccc(Br)cc3)n3cc(C)cc(C)c23)n1	inactive

Exercise: Please let me know the test result on file for COc1cccc(CNC(=O)c2cccc(C3CC(=O)c4c(cc(OC)c(OC)c4OC)O3)c2)c1 (configuration not stated) .
Solution: inactive

Exercise: // outcome(item) with item = COc1ccc(C(=O)CN2C(=O)NC(c3ccccc3)(c3ccccc3)C2=O)cc1
Solution: inactive

Exercise: Dear all, I need the recorded test outcome for CC(=O)Nc1nc(C)c(C(=O)N/N=C/c2cccs2)s1 , thank you.
Solution: inactive

Exercise: What call does the record list for c1cc[c]([Bi]([c]2ccccc2)[c]2ccccc2)cc1 ?
Solution: inactive

Exercise: Lab log entry: NCCCOc1cc2ccccc2cc1C(=O)Nc1ccc(Cl)cc1OC(=O)c1cc2ccccc2cc1OCCCN — outcome as called in the assay?
Solution: active

Exercise: What is the recorded call for this compound in the test? COc1ccc(C(=O)c2no[n+]([O-])c2C(=O)c2ccc(OC)cc2)cc1
Solution: inactive

Exercise: Call for entry CCOC(=O)/C(C#N)=C(/CC)OCC :
Solution: inactive

Exercise: What did this assay record as the result for COc1cc(NC(=O)CSc2nc3ccc(Cl)cc3c(=O)n2-c2ccc(F)cc2)cc(OC)c1OC ?
Solution: inactive

Exercise: Give the logged outcome of this assay for the following compound: C/C(CCC(=O)O)=N/Nc1ccc([N+](=O)[O-])cc1
Solution: inactive

Exercise: What classification did O=C(Nc1cccc2[nH]c(C(F)(F)F)nc12)c1ccc(F)cc1 end up with in this test?
Solution: inactive

Exercise: Which result was noted for this compound in the test: Cc1ccc(NCc2cn(-c3ccc(C(=O)O)cc3)nc2-c2ccc(C(=O)O)cc2)cc1
Solution: inactive

Exercise: Any idea what this test logged for S=C(N/N=C/c1cc(Cl)cc(Cl)c1)NC12CC3CC(CC(C3)C1)C2 ?
Solution: inactive

Exercise: Outcome logged for CC(O)CCC(C)[N+](=O)[O-] (configuration not stated) in this assay:
Solution: inactive

Exercise: What did the test return for O=C(O)c1ccc(-c2nn(-c3ccc(C(=O)O)cc3)cc2CNc2ccc(Br)cc2)cc1 ?
Solution: inactive

Exercise: Recorded test call requested for COc1ccc(-c2nc(SCC(C)C)nc(Nc3ccc(C(=O)O)cc3)c2C#N)cc1
Solution: inactive

Exercise: I would be grateful if you could indicate the recorded call for CN1C(=O)C(=Cc2coc3ccc(Br)cc3c2=O)C(=O)N(C)C1=O .
Solution: inactive

---

- Tested on: SR leukemia
- test details: NCI-60 one-dose screen, 48 h (100 = growth as untreated, 0 = no growth, -100 = all killed)
- condition context: 10 µM unless noted
This is part of a sample that, as a whole, favours compounds with a hit. Of some 83,000 tested, about 20% had one in any assay. The source made the active and inactive calls. The calls were made as follows: active = growth percent below 10; inactive = the rest.
observed property: growth

molecule	target desc	test result
CC(=O)NNC(=O)c1sc(NC(C)=O)nc1C	SR leukemia	87.4% (inactive)
O=C(Nc1ccc(-n2cc(-c3ccncc3)c(-c3ccc(Cl)c(O)c3)n2)cc1)c1cc(Cl)cc(Cl)c1	SR leukemia	15.8% (inactive)
O=C(/C=C/c1c[nH]c2ccccc12)c1cc2ccccc2o1	SR leukemia	41.1% (inactive)

Exercise: growth for CC(O)CN(CCO)CCN(CCO)CC(C)O (configuration not stated) ?
Solution: 89.2% (inactive)

Exercise: Form field: reported growth of Cc1ccc(S(=O)(=O)N/N=C2\CC3CCC2C3)cc1 (configuration not stated)
Solution: 103% (inactive)

Exercise: Fill in: growth of Cc1cc2c(-c3nc4ccccc4[nH]3)c(O)c(O)cc2c(O)c1-c1c(C)cc2c(-c3nc4ccccc4[nH]3)c(O)c(O)cc2c1O is ___
Solution: 6% (active)

Exercise: Query (molecule): COC(=O)Nc1nc2ccc(C(=O)c3ccccc3N(C)C3COC3)cc2[nH]1 ; field requested: growth
Solution: 35.6% (inactive)

Exercise: Give the measured growth of CCCCCCCCCCCCCCCCNC(=O)Nc1ccc(C)c(NC(=O)NCCCCCCCCCCCCCCCC)c1 .
Solution: 104% (inactive)

Exercise: Entry COc1ccc(C2CC(=O)c3c(O)cc(OC4OC(COC5OC(C)C(O)C(O)C5O)C(O)C(O)C4O)cc3O2)cc1O (configuration not stated) has what growth?
Solution: 130% (inactive)

Exercise: Name the recorded growth for CCOc1ccccc1/C=N\N=C(N/N=C/c1ccccc1OCC)N/N=C/c1ccccc1OCC .
Solution: 15.7% (inactive)

Exercise: What value of growth has been recorded for this entry: O=C(/C=C1\C(=O)N(Cc2ccc([N+](=O)[O-])cc2)c2ccccc21)c1ccc(OCCN2CCCCC2)cc1
Solution: -27.9% (active)

Exercise: Request the reported growth associated with Oc1ccc(N=Nc2ccc(N=Nc3ccccc3)cc2)cc1
Solution: 43.1% (inactive)

Exercise: Return reported growth; argument: O=C(/C=C1\C(=O)N(Cc2ccc([N+](=O)[O-])cc2)c2ccccc21)c1ccc(OCCN2CCCC2)cc1
Solution: -19% (active)

Exercise: So what does the record say about growth for CCOC(=O)NC1=NCC(C)(C)S1 ?
Solution: 104% (inactive)

Exercise: I am curious: what growth value has been reported for COc1cc(NC(C)CCCN)c2nccc(C)c2c1OC (configuration not stated) ?
Solution: 69.4% (inactive)

Exercise: Given the entry Nc1ccc(S(=O)(=O)c2ccc(NO)cc2)cc1 , report its measured growth.
Solution: 129% (inactive)

Exercise: Suppose we examine the molecule CC1(C)Oc2cc3oc(=O)ccc3cc2C[C@@H]1OCCOS(=O)(=O)c1ccc(C#N)cc1 ; what growth value has been reported?
Solution: 107% (inactive)

Exercise: I have this molecule here, CCCCCCC(C)N(CC(C)(C)O)C(=O)c1ccc([N+](=O)[O-])cc1 (configuration not stated) , and I need its recorded growth.
Solution: 89.5% (inactive)

Exercise: Consider the molecule shown here: CC1=NN(c2cccc(Cl)c2)C(=O)/C1=C\c1cn(-c2nc(N3CCOCC3)nc(N3CCOCC3)n2)c2ccccc12 What is its recorded growth?
Solution: 100% (inactive)

Exercise: Look up growth: Oc1ccccc1\C=N/N=C/C=C/c1ccccc1
Solution: 71.9% (inactive)

Exercise: Can you share its growth? I mean this molecule: CC(=O)CC(=O)OC/C=C(/C)CCC=C(C)C
Solution: 92.2% (inactive)

Exercise: If you can, please state the reported growth value of CCNc1nnc(COc2ccc(CNC(=O)CCCC/C=C/C(C)C)cc2OC)o1 .
Solution: 89% (inactive)

Exercise: Which growth value is on record for C/C(=N\Nc1cccc(Cl)n1)c1ccccn1 ?
Solution: 6.31% (active)

Exercise: Quick check: growth of CCCCN(CCC)CCCCCCCCCCN1CCCc2ccccc21 ?
Solution: 10.5% (inactive)

Exercise: So what does the record say about growth for O=C(Nc1ccc(Cl)c(Cl)c1)O/N=C\c1c(Cl)ccc([N+](=O)[O-])c1Cl ?
Solution: -23.7% (active)

---

- System: KM12 colon
- test details: NCI-60 one-dose screen, 48 h
- condition context: 10 µM unless noted
About 83,000 compounds went through this panel and 20% of them were active in at least one assay; those are over-represented in the sample as a whole. The source made the active and inactive calls. Rule for the calls: active = growth percent below 10; inactive = the rest.
Hi! Could you answer with just one of these? active, inactive

Example cases with answers are listed next.
molecule	class assignment
O=S(=O)(O)CCI	inactive
COc1cc(-c2c3c(cn2CCN2CCCCC2)-c2oncc2CC3)cc(OC)c1OC	inactive
Cc1ccc(S(=O)(=O)N/N=C2\CC3CCC2C3)cc1 (centres undefined)	inactive
CCOC(=O)C1=C(C(F)(F)F)NC(=S)NC1CN1C(=O)c2ccccc2C1=O (centres undefined)	inactive
Cn1cnc2nc[nH]c2c1=S	inactive

Exercise: Hello, I am checking results. What call was entered for C/C=C(/C)C(=O)OC1C=C(CO)C(=O)C(OC(=O)C(C)(O)C(C)Cl)C1C(C)C (centres undefined) ?
Solution: active

Exercise: Identify the outcome logged in this assay for the molecule shown: COc1ccc(-c2cc(C#N)c(NNC(C)=O)[nH]2)cc1
Solution: inactive

Exercise: Answer briefly: the call reported for Nc1ccc(N=Nc2ccccc2)c2cc(S(=O)(=O)O)ccc12 in this assay.
Solution: inactive

Exercise: Give the logged outcome of this assay for the following molecule: CCOC(=O)c1c(C)oc2ncnc(Nc3ccc(NC(=O)Nc4ccc(CC)cc4)cc3)c12
Solution: inactive

Exercise: Please share the test call associated with CC[N+](C)(C)N .
Solution: inactive

Exercise: So what was the verdict on CC(O)CCC(C)[N+](=O)[O-] (centres undefined) in this test?
Solution: inactive

Exercise: Hi, do you know how NC(=O)c1c(Nc2ccccc2)nn2cc(-c3nc4ccccc4s3)c(N)nc12 came out in this test?
Solution: inactive

Exercise: Please state the recorded outcome for this molecule: Cc1ccc(OCCn2ccc(=O)n(CCOc3ccc(Cl)cc3C(=O)c3cc(C)cc(C)c3)c2=O)cc1
Solution: inactive
